Measured pEC50 accompanies every entry in the list below.
Tested on: HCV genotype 1b (Con1) replicon in HUH-7 cells
assay.explanation: HCV replicon luciferase reporter assay, genotype 1b
Format: cell-based
applied.conditions: Hepatitis C virus, Huh-7, 72 h, HCV genotype 1b replicon luciferase, 3 days incubation, read-out: LE_1b (EC50, range)
pEC50: −log10 of the molar value.

compound	pEC50
C[C@@H]1CC/C=C\[C@@H]2C[C@@]2(C(=O)NS(=O)(=O)C2(C)CC2)NC(=O)[C@@H]2C[C@@H](Oc3nccc4c5c(ccc34)N(C)CCO5)CN2C(=O)[C@@H](NC(=O)c2ccc(N(C)C)cc2)[C@H](C)C1 [Compound 5304]	> 8.26
C[C@H]1CC/C=C\[C@@H]2C[C@@]2(C(=O)NS(=O)(=O)C2CC2)NC(=O)[C@@H]2C[C@@H](Oc3nccc4c5c(ccc34)N(C)CCO5)CN2C(=O)[C@@H](NC(=O)c2ccc(N(C)C)cc2)[C@H](C)C1 [Compound 5289]	> 8.26
CC[C@@H]1C[C@H](C)CC/C=C\[C@@H]2C[C@@]2(C(=O)NS(=O)(=O)C2(C)CC2)NC(=O)[C@@H]2C[C@@H](Oc3nc(OC)cc4ccccc34)CN2C(=O)[C@H]1NC(=O)OC(C)(C)C [Compound 6005]	> 8.26
COc1ccc2c(O[C@@H]3C[C@H]4C(=O)N[C@]5(C(=O)NS(=O)(=O)C6CC6)C[C@H]5/C=C\CC[C@@H](C)C[C@@H](C)[C@H](NC(=O)OC(C)(C)C)C(=O)N4C3)nccc2c1 [Compound 1205]	9.00 to 9.29

----------
Tested on: HCV genotype 1b (Con1) replicon in HUH-7 cells
assay.explanation: HCV replicon luciferase reporter assay, genotype 1b
Assay type: cell-based
applied.conditions: Hepatitis C virus, Huh-7, 72 h, HCV genotype 1b replicon luciferase, 3 days incubation, read-out: LE_1b (EC50, range)
pEC50: −log10 of the molar value.
attribute.measured: pEC50

smiles.record	attribute.measured	experimental.result
CC[C@@H]1C[C@H](C)CC/C=C\[C@@H]2C[C@@]2(C(=O)NS(=O)(=O)C2(C)CC2)NC(=O)[C@@H]2C[C@@H](Oc3nc4cc(OC)ccc4nc3Cl)CN2C(=O)[C@H]1NC(=O)OC(C)(C)C	pEC50	9.30 to 10.00
CCOc1nnc(O[C@@H]2C[C@H]3C(=O)N[C@]4(C(=O)NS(=O)(=O)C5CC5)C[C@H]4/C=C\CC[C@H](C)C[C@@H](C)[C@H](NC(=O)OC(C)(C)C)C(=O)N3C2)c2ccccc12	pEC50	6.99 to 8.32
C[C@@H]1CC/C=C\[C@@H]2C[C@@]2(C(=O)NS(=O)(=O)C2(CF)CC2)NC(=O)[C@@H]2C[C@@H](Oc3ncc(N4CCOCC4)c4ccccc34)CN2C(=O)[C@@H](NC(=O)OC(C)(C)C(F)(F)F)[C@H](C)C1	pEC50	9.00 to 9.29
CC[C@@H]1C[C@H](C)CC/C=C\[C@@H]2C[C@@]2(C(=O)NS(=O)(=O)C2(C)CC2)NC(=O)[C@@H]2C[C@@H](Oc3nccc4c5c(ccc34)CCCO5)CN2C(=O)[C@H]1NC(=O)OC(C)(C)C(F)(F)F	pEC50	9.00 to 9.29
CC[C@@H]1C[C@@H](C)CC/C=C\[C@@H]2C[C@@]2(C(=O)NS(=O)(=O)C2CC2)NC(=O)[C@@H]2C[C@@H](Oc3nccc4cc(OC)c(F)cc34)CN2C(=O)[C@H]1NC(=O)OC(C)(C)C(C)(F)F	pEC50	8.30 to 9.00
COc1cc2ccnc(O[C@@H]3C[C@H]4C(=O)N[C@]5(C(=O)NS(=O)(=O)C6(CF)CC6)C[C@H]5/C=C\CC[C@@H](C)C[C@@H](C)[C@H](NC(=O)c5ccc(F)cc5F)C(=O)N4C3)c2cc1F	pEC50	> 8.26
CCn1nc(O[C@@H]2C[C@H]3C(=O)N[C@]4(C(=O)NS(=O)(=O)C5CC5)C[C@H]4/C=C\CC[C@@H](C)C[C@@H](C)[C@H](NC(=O)O[C@@H]4C[C@@H]5C[C@@H]5C4)C(=O)N3C2)c2ccccc2c1=O	pEC50	> 8.26
COc1ccc2c(O[C@@H]3C[C@H]4C(=O)N[C@]5(C(=O)NS(=O)(=O)C6(C)CC6)C[C@H]5/C=C\CC[C@@H](C)C[C@@H](C)[C@H](NC(=O)OC(C)(C)C)C(=O)N4C3)ncc(N3CCOCC3)c2c1	pEC50	> 8.26
COc1ccc2c(O[C@@H]3C[C@H]4C(=O)N[C@]5(C(=O)NS(=O)(=O)C6CC6)C[C@H]5/C=C\CC[C@H](C)C[C@@H](C)[C@H](NC(=O)OC(C)(C)C(F)(F)F)C(=O)N4C3)nc(-c3ccc(OC(C)C)nc3)cc2c1	pEC50	> 8.26
[2H]C([2H])([2H])C(OC(=O)N[C@@H]1C(=O)N2C[C@H](Oc3nccc4cc(OC(C)C)ccc34)C[C@H]2C(=O)N[C@]2(C(=O)NS(=O)(=O)C3(C)CC3)C[C@H]2/C=C\CC[C@@H](C)C[C@H]1C)(C([2H])([2H])[2H])C([2H])([2H])[2H]	pEC50	> 8.26
CCCOc1cnc(O[C@@H]2C[C@H]3C(=O)N[C@]4(C(=O)NS(=O)(=O)C5CC5)C[C@H]4/C=C\CC[C@H](C)C[C@@H](C)[C@H](NC(=O)O[C@H](C)C(F)(F)F)C(=O)N3C2)c2ccccc12	pEC50	< 7.06
CC[C@@H]1C[C@@H](C)CC/C=C\[C@@H]2C[C@@]2(C(=O)NS(=O)(=O)C2(C)CC2)NC(=O)[C@@H]2C[C@@H](Oc3nccc4cc(OC)c(F)cc34)CN2C(=O)[C@H]1NC(=O)OC(C)(C)C(C)(F)F	pEC50	8.30 to 9.00
C[C@@H]1CC/C=C\[C@@H]2C[C@@]2(C(=O)NS(=O)(=O)C2(C)CC2)NC(=O)[C@@H]2C[C@@H](Oc3nccc4c5c(ccc34)N(C)CCO5)CN2C(=O)[C@@H](NC(=O)C(=O)N(C)C)[C@H](C)C1	pEC50	> 8.26
COc1cc2ccnc(O[C@@H]3C[C@H]4C(=O)N[C@]5(C(=O)NS(=O)(=O)C6(CF)CC6)C[C@H]5/C=C\CC[C@@H](C)C[C@@H](C)[C@H](NC(=O)OC(C)(C)C)C(=O)N4C3)c2cc1F	pEC50	> 8.26
C[C@@H]1CC/C=C\[C@@H]2C[C@@]2(C(=O)NS(=O)(=O)C2(C)CC2)NC(=O)[C@@H]2C[C@@H](Oc3nccc4c5c(ccc34)CCCO5)CN2C(=O)[C@@H](NC(=O)OC(C)(C)C(F)(F)F)[C@H](C)C1	pEC50	9.00 to 9.29
COc1ccc2c(O[C@@H]3C[C@H]4C(=O)N[C@]5(C(=O)NS(=O)(=O)C6(C)CC6)C[C@H]5/C=C\CC[C@@H](C)C[C@@H](C)[C@H](NC(=O)OC(C)(C)C(F)(F)F)C(=O)N4C3)nc(-c3ccc(N4CCOCC4)cc3)cc2c1	pEC50	> 8.26
CC(C)Oc1ccc2c(O[C@@H]3C[C@H]4C(=O)N[C@]5(C(=O)NS(=O)(=O)C6CC6)C[C@H]5/C=C\CC[C@@H](C)C[C@@H](C)[C@H](NC(=O)OC(C)(C)C(F)(F)F)C(=O)N4C3)nccc2c1	pEC50	> 8.26

----------
Quick reference for pEC50 among some compounds
Test system: HCV genotype 1a (H77 strain) replicon in HUH-7 cells
assay.explanation: HCV replicon luciferase reporter assay, genotype 1a
Type: cell-based
applied.conditions: Hepatitis C virus, Huh-7, 72 h, HCV genotype 1a replicon luciferase assay, 3 days incubation, read-out: LE_1a (EC50)
pEC50: −log10 of the molar value.

smiles.record	operator.symbol	pEC50
COc1cc2cc(-c3ccc(OC(C)C)cc3)nc(O[C@@H]3C[C@H]4C(=O)N[C@]5(C(=O)NS(=O)(=O)C6(C)CC6)C[C@H]5/C=C\CC[C@@H](C)C[C@@H](C)[C@H](NC(=O)OC(C)(C)C)C(=O)N4C3)c2cc1F	=	8.56
COc1cc(F)cc2c(O[C@@H]3C[C@H]4C(=O)N[C@]5(C(=O)NS(=O)(=O)C6CC6)C[C@H]5/C=C\CC[C@@H](C)C[C@@H](C)[C@H](NC(=O)OCC5(C)CC5)C(=O)N4C3)nccc12	=	8.98
C[C@@H]1CC/C=C\[C@@H]2C[C@@]2(C(=O)NS(=O)(=O)C2CC2)NC(=O)[C@@H]2C[C@@H](Oc3ncc(OC4CC4)c4ccccc34)CN2C(=O)[C@@H](NC(=O)OC(C)(C)C)[C@H](C)C1	=	9.37
COc1ccc2c(O[C@@H]3C[C@H]4C(=O)N[C@]5(C(=O)NS(=O)(=O)C6(F)CC6)C[C@H]5/C=C\CC[C@H](C)C[C@@H](C)[C@H](NC(=O)OC(C)(C)C)C(=O)N4C3)nccc2c1	=	8.51
CC(C)n1nc(O[C@@H]2C[C@H]3C(=O)N[C@]4(C(=O)NS(=O)(=O)C5(C)CC5)C[C@H]4/C=C\CC[C@@H](C)C[C@@H](C)[C@H](NC(=O)OC(C)(C)C)C(=O)N3C2)c2ccccc2c1=O	=	6.96
COCCn1nc(O[C@@H]2C[C@H]3C(=O)N[C@]4(C(=O)NS(=O)(=O)C5CC5)C[C@H]4/C=C\CC[C@H](C)C[C@@H](C)[C@H](NC(=O)OC(C)(C)C)C(=O)N3C2)c2ccccc2c1=O	≤	6.00
COCCn1nc(O[C@@H]2C[C@H]3C(=O)N[C@]4(C(=O)NS(=O)(=O)C5(C)CC5)C[C@H]4/C=C\CC[C@H](C)C[C@@H](C)[C@H](NC(=O)OC(C)(C)C(C)(F)F)C(=O)N3C2)c2ccccc2c1=O	≤	6.00
CC(C)n1nc(O[C@@H]2C[C@H]3C(=O)N[C@]4(C(=O)NS(=O)(=O)C5(C)CC5)C[C@H]4/C=C\CC[C@H](C)C[C@@H](C)[C@H](NC(=O)OC(C)(C)C(F)(F)F)C(=O)N3C2)c2ccccc2c1=O	≤	6.00
CC(C)n1nc(O[C@@H]2C[C@H]3C(=O)N[C@]4(C(=O)NS(=O)(=O)C5CC5)C[C@H]4/C=C\CC[C@H](C)C[C@@H](C)[C@H](NC(=O)OC(C)(C)C)C(=O)N3C2)c2ccccc2c1=O	≤	6.00

The measured values listed here are drawn from patent US9499550B2.
